- System: Lung adenocarcinoma (site B)
- Assay Method Text: MiCK assay, drug-induced apoptosis, Table 4 tumor C2
- Measurement Setup: Table 4 tumor C2: Lung adenocarcinoma (site B); 48 hours with drug
Property: kinetic units (KU) of apoptosis

CCc1c2c(nc3ccc(OC(=O)N4CCC(N5CCCCC5)CC4)cc13)-c1cc3c(c(=O)n1C2)COC(=O)[C@]3(O)CC [Irinotecan]	2.10
COc1cccc2c1C(=O)c1c(O)c3c(c(O)c1C2=O)C[C@@](O)(C(=O)CO)C[C@@H]3O[C@H]1C[C@H](N)[C@H](O)[C@H](C)O1 [Doxorubicin]	0.90
N.N.O=C([O-])C1(C(=O)[O-])CCC1.[Pt+2] [Carboplatin]	2.60
Nc1ccn([C@@H]2O[C@H](CO)[C@@H](O)C2(F)F)c(=O)n1 [Gemcitabine]	1.30
